measurement.name: IC50

Given the entry CC(=O)N1CCN(CCC[C@@]2(c3ccccc3)CC(c3cc([Si](C)(C)C)ccc3F)=NN2C(C)=O)CC1 [Compound 3-8] , what IC50 was observed with human KSP motor domain (KSP(367H)) (Homo sapiens)?
≤ 50 µM

Reference source for all entries: patent US7625936B2
